RUN DESCRIPTION: Standard protocol for determination of kcat and KM (continuous spectrophotometric assay, Acetyl CoA hydrolysis at 235 nm)
Assay type: biochemical
EXPERIMENTAL SETUP: purified protein; about 23° C.; pH 6.8; 0.2 mM acetyl CoA; glyphosate 0.125 to 10 mM
Binarize Km at 1000 µM; below is condition met, at or above is condition not met.

// known answers, use as guide
{"MOLECULE": "SEQ ID NO: 471: GAT polypeptide (protein, 1_2C4, GAT polypeptide) MLEVKPINAEETYELRHKILRPNQPIEACMYETDLLRGSFHLGGFYRGQLISIASFHQAEHSDLQGQKQYQLRGMATLEGYREQKAGSTLIKHAEELLRKKGADLLWCNARTTAAGYYKKLGFSEQGEVFDTPPVGPHILMYKKIT", "LABEL VALUE": "condition met"}
{"MOLECULE": "SEQ ID NO: 487: GAT polypeptide (protein, 3_14F6, GAT polypeptide) MLEVKPINAEDTYELRHRILRPNQPIEACMYESDLLRGAFHLGGFYRGKLISIASFHQAEHSELQGQKQYQLRGMATLEGYREQKAGSSLIKHAEEILRKRGADLLWCNARTSASGYYKKLGFSEQGEIFETPPVGPHILMYKRLT", "LABEL VALUE": "condition met"}
{"MOLECULE": "SEQ ID NO: 397: GAT polypeptide (protein, 6_22D9, GAT polypeptide) MIEVKPINAEDTYEIRHRILRPNQPLEACMYETDLLEGTFHLGGYYRGKLISIASFHQAEHSELEGQKQYQLRGMATLEGYREQKAGSTLIRHAEELLRKKGADLLWCNARTSASGYYKKLGFSEQGEVYDIPPVGPHILMYKKLT", "LABEL VALUE": "condition not met"}

Consider SEQ ID NO: 334: GAT polypeptide (protein, 15_3G11, GAT polypeptide) MIEVKPINAEDTYEIRHRILRPNQPLEACKYETDLLGGTFHLGGYYRGKLVSIASFHQAEHPELEGQKQYQLRGMATLEEYREQKAGSTLIRHAEELLRKKGADLLWCNARTSASGYYKKLGFSEQGEVYDIPPVGPHILMYKKLT . Does its Km lie strictly below 1000 µM? condition not met

Thanks! And SEQ ID NO: 385: GAT polypeptide (protein, 6_17C5, GAT polypeptide) MIEVKPINAEDTYEIRHRILRPNQPLEACKYEADLLGGTFHLGGYYRGKLISIASFHQAEHPELEGQKQYQLRGMATLEGNREQKAGSTLIRHAEELLRKKGADLLWCNARTSASGYYKKLGFSEQGEVYDVPPIGPHILMYKKLT ? condition not met

Param item: SEQ ID NO: 295: GAT polypeptide (protein, 12_7G11, GAT polypeptide) MIEVKPINAEDTYEIRHRILRPNQPLEACKYETDLLGGTFHLGGYYRGKLISIASFHQAEHSELEGQKQYQLRGMATLEGYREQKAGSTLIRHAEELLRKKGADLLWCNARTSASGYYKKLGFSEQGEVYDTPPVGPHILMYKKLT condition not met

Every entry's value here was drawn from patent US8008547B2.
